Field 'label' (enum: T / F). Set to T when CO2 permeability is strictly under 60 Barrer; else F.

A selection of reference data follows.
INSERT INTO assay_data (molecule, discrete_label) VALUES
  ('*C(C)=C(*)c1ccccc1 (repeat unit)', 'F'),
  ('*c1c(C)cc2c(c1C)C1c3ccccc3C2c2cc(C)c(N3C(=O)c4ccc5c6c(ccc(c46)C3=O)C(=O)N(*)C5=O)c(C)c21 (repeat unit)', 'F'),
  ('*c1ccc(Cc2ccc(N3C(=O)c4ccc(C(c5ccc6c(c5)C(=O)N(*)C6=O)(C(F)(F)F)C(F)(F)F)cc4C3=O)c(Cl)c2)cc1Cl (repeat unit)', 'T'),
  ('*Cc1ccc(C*)c(Br)c1 (repeat unit)', 'T'),
  ('*CC(O)C* (repeat unit)', 'T'),
  ('*c1ccc(Cc2ccc(N3C(=O)c4ccc(C(c5ccc6c(c5)C(=O)N(*)C6=O)(C(F)(F)F)C(F)(F)F)cc4C3=O)c(C)c2)cc1C (repeat unit)', 'T');

Let's switch to this molecule now.
Req: Answer whether the molecule *C/C=C(/C)C* (repeat unit) has CO2 permeability strictly less than 60 Barrer
Resp: F
